Assay: Human liver microsome stability assay
Assay type: in vitro ADME
Settings: both sexes, human, microsomes, pH 7.4
Reported half-life at 0.5 μM values for a set of compounds
Form entry: value (min) — number only.

Please give the measured half-life at 0.5 μM for this compound: Cn1cc(-c2cc(NC(=O)CC(F)(F)F)ccc2Oc2ccc(F)cc2F)c2cc[nH]c2c1=O [Example 38]
16.8

Item: CCS(=O)(=O)c1ccc(O[C@H]2CC[C@@H](OC)CC2)c(-c2cn(C)c(=O)c3[nH]ccc23)c1 [Example 248]
13

###

Reported half-life at 0.5 μM values for a set of compounds
Assay: Human liver microsome stability assay
Format: in vitro ADME
Conditions: both sexes, human, microsomes, pH 7.4
Form entry: value (min) — number only.

| Chemical structure | Units label | half-life at 0.5 μM |
| --- | --- | --- |
| Cn1cc(-c2cc(S(C)(=O)=O)ccc2Oc2ccc(F)cc2F)c2cc(COc3ccccc3)[nH]c2c1=O | min | 8 |
| Cn1cc(-c2cc(NS(C)(=O)=O)cnc2Oc2ccccc2)c2cc[nH]c2c1=O | min | 64 |

Please give the measured half-life at 0.5 μM for this compound: CCCS(=O)(=O)Nc1ccc(OC2CCC(F)(F)CC2)c(-c2cn(C)c(=O)c3[nH]ccc23)c1
36

Item: CCS(=O)(=O)Nc1ccc(OCc2ccnn2C)c(-c2cn(C)c(=O)c3[nH]ccc23)c1
112

Item: Cn1cc(-c2cc(NS(C)(=O)=O)ccc2Oc2ccccc2C(F)(F)F)c2cc[nH]c2c1=O
24

Item: Cn1cc(-c2cc(C(=O)NCc3ccc(F)c(F)c3)ccc2Oc2ccc(F)cc2F)c2cc[nH]c2c1=O
45

Item: Cc1ccc(Oc2ccc(S(C)(=O)=O)cc2-c2cn(C)c(=O)c3[nH]ccc23)cc1
16

###

Assay: Human liver microsome stability assay
Type: in vitro ADME
Conditions: both sexes, human, microsomes, pH 7.4
Measurement label: log10 of half-life at 0.5 μM (log10 of the value in min)
Recall that a logarithmic scale is used here: each number is log10 of half-life at 0.5 μM in min.

Here are 4 molecules together with their reported answers.
| Molecule | log10 of half-life at 0.5 μM |
| --- | --- |
| CCS(=O)(=O)Nc1ccc(Oc2ccc(F)cc2F)c(-c2cn(C)c(=O)c3[nH]cc(CN4CCN(C)CC4)c23)c1 | 1.88 |
| CN(C)S(=O)(=O)c1cnc(NCC2CC2)c(-c2cn(C)c(=O)c3[nH]ccc23)c1 | 1.51 |
| Cn1cc(-c2cc(C(=O)N3CCN(C(=O)c4ccco4)CC3)ccc2Oc2ccc(F)cc2F)c2cc[nH]c2c1=O | 1.18 |
| CCS(=O)(=O)N(Cc1ccccn1)c1ccc(Oc2ccc(F)cc2F)c(-c2cn(C)c(=O)c3[nH]ccc23)c1 | 0.30 |

Please give the measured log10 of half-life at 0.5 μM for this molecule: CCCS(=O)(=O)Nc1ccc(Oc2ccc(F)cc2F)c(-c2cn(C)c(=O)c3[nH]ccc23)c1
1.61

Item: Cn1cc(-c2cc(C(N)=O)ccc2Oc2ccc(F)cc2F)c2cc[nH]c2c1=O
1.54

Item: Cn1cc(-c2cc(NS(C)(=O)=O)ccc2Oc2c(F)cc(F)cc2F)c2cc[nH]c2c1=O
1.85

Item: Cn1cc(-c2cc(S(=O)(=O)Nc3ccc(F)cc3)ccc2OCC2CC2)c2cc[nH]c2c1=O
0.60
